B1: tRNA (parent)
chain: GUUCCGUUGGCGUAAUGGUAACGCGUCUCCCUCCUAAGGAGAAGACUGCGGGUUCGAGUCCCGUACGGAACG

Variants of: B1
Assay: yeast fitness relative to wild type (ratio to wild type); higher = fitter; tRNA-Arg(CCU), competitive growth, 37 C, YPD
This sample holds only a part of the variants without activity.
VALUE KIND: yeast fitness
I only need the number, thanks.

U8C C22U; 0.768
A21U A42U A57G; 0.548
U3C C27U C62U; 0.617
C4G G41A A45U; 0.537
C4A C29G C34G C49U; 0.557

What does the data say about its yeast fitness? Entry: U2A C24U
0.95

Another variant to check: G12C C27U
0.805

Now try U13A C27G .
0.621

Moving on to A40G C61G
0.628

Another variant to check: U7C A70C
0.742

Likewise for C4A U8C U47C ?
0.579

What do you have for U47G U59A ?
0.543
